Data provenance is patent US20110159019A1.

# TARGET_UNDER_TEST: Full-length human PKCθ (Homo sapiens, UniProt Q04759)
# Construct: Full-length human PKCθ (Carna Biosciences, final 31 ng/mL); purchased Carna Biosciences
# Sequence (Q04759 whole entry): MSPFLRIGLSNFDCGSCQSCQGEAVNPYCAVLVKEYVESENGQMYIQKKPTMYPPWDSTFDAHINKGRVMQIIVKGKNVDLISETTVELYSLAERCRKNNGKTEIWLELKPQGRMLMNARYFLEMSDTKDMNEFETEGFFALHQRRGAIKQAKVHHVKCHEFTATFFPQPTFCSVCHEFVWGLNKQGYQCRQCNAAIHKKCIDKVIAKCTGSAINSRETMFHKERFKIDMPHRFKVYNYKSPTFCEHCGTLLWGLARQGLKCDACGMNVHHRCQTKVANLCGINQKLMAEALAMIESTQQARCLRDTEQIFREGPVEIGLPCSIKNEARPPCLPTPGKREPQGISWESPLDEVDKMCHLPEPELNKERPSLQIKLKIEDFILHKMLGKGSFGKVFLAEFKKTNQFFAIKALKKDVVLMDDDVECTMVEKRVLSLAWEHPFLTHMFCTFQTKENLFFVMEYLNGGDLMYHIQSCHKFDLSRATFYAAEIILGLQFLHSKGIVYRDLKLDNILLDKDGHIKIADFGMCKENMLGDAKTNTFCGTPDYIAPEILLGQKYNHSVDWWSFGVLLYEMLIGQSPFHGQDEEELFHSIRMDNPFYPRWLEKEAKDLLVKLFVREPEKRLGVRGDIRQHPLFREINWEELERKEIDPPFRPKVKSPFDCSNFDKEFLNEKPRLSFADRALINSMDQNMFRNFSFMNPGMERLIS
# EXPERIMENT_NOTES: Measurement of human PKCθ enzyme inhibition activity (HTRF KinEASE S1 kit)
# Type: biochemical
# STUDY_CONDITIONS: full-length human PKCθ, ATP 30 μM, HTRF; read-out: IC50 (nM), human PKCθ enzyme inhibition
# Experimental: Test Method 1: Measurement of Human PKCθ Enzyme Inhibition Activity The test was carried out using a HTRF® KinEASE™ S1 kit (CIS bio). […] Then, 3 μL of an ATP liquid (final 30 μM) was dispensed therein to carry out an enzyme reaction at room temperature for 1 hour. Ex represents Compound No. of Examples as described later.
Counter-ions that a name gives are not always drawn.
I'd be grateful if you could share measured log10(IC50) for these entries.
Please note: log10 values; quantity IC50; unit nM.

Which log10(IC50) is listed for N#Cc1cnc(NCCc2cccc(Cl)c2)nc1NC[C@]12CC3C[C@H](C1)[C@@H](N)[C@@H](C3)C2 (relative stereo) [Example 292] ?
1.00

Next compound up: N#Cc1cnc(NCc2ccccc2OC(F)(F)F)nc1NCC1CC2CCC(C1)N2 (centres unmarked) [Example 170, dihydrochloride]
2.04

Now consider N#Cc1cnc(NCc2ccccc2OC(F)(F)F)nc1NCCC(=O)N1CCCNCC1 [Example 387] .
1.89

Then this compound: CSc1ccccc1CNc1ncc(C#N)c(NC[C@]23CC4C[C@H](C2)[C@@H](NC[C@H]2CC[C@@H](O)CC2)[C@@H](C4)C3)n1 (relative stereo) [Example 264]
0.28

Another compound to look at: N#Cc1cnc(NCc2ccccc2Cl)nc1NC[C@]12CC3C[C@H](C1)[C@@H](NC[C@H]1CC[C@H](O)CC1)[C@@H](C3)C2 (relative stereo) [Example 340]
0.15

Also check N#Cc1cnc(NCc2ccccc2Cl)nc1NC[C@]12CC3C[C@H](C1)[C@@H](NC[C@H]1CC[C@H](CO)CC1)[C@@H](C3)C2 (relative stereo) [Example 341]
0.23

Please do the same for C[C@]1(O)CC[C@@H](CN[C@@H]2[C@@H]3CC4C[C@H]2C[C@@](CNc2nc(NCc5ccccc5OC(F)F)ncc2C#N)(C4)C3)CC1 (relative stereo) [Example 371] as well.
-0.15

Next up: N#Cc1cnc(NCc2ccccc2Cl)nc1NC[C@]12CC3C[C@H](C1)[C@@H](NCC1CCNCC1)[C@@H](C3)C2 [Example 321]
-0.60

Now give it for N#Cc1cnc(NCc2ccccc2Cl)nc1NC[C@]12CC3C[C@H](C1)[C@@H](N1CC(O)C1)[C@@H](C3)C2 [Example 211] too.
-0.02

Then N#Cc1cnc(NCc2ccccc2OC(F)(F)F)nc1NCCC(=O)N1CCNCC1 [Example 156] ?
1.83

Subsequent entry: N#Cc1cnc(NCc2ccccc2Cl)nc1NC[C@]12CC3C[C@H](C1)[C@@H](NCCN1CCC(O)CC1)[C@@H](C3)C2 (relative stereo) [Example 208]
0.20

Request: N#Cc1cnc(NCc2ccccc2OC(F)(F)F)nc1NC[C@]12CC3C[C@H](C1)[C@@H](N[C@H]1CC[C@@H](NC4CCOCC4)CC1)[C@@H](C3)C2 (relative stereo) [Example 284]
-0.55

Repeat with N#Cc1cnc(NCc2ccccc2Cl)nc1NC[C@]12CC3C[C@H](C1)[C@@H](NC1CCNCC1)[C@@H](C3)C2 [Example 169]
-0.44

Try this compound next: CN([C@H]1CC[C@H](O)CC1)[C@@H]1[C@@H]2CC3C[C@H]1C[C@@](CNc1nc(NCc4ccccc4OC(F)(F)F)ncc1C#N)(C3)C2 [Example 115]
0.54

Next entry: C[C@]1(O)CC[C@H](CN[C@@H]2[C@@H]3CC4C[C@H]2C[C@@](CNc2nc(NCc5ccccc5OC(F)F)ncc2C#N)(C4)C3)CC1 (relative stereo) [Example 372]
0.09

One more compound: CN(C)[C@@H]1[C@@H]2CC3C[C@H]1C[C@@](CNc1nc(NCc4ccccc4OC(F)(F)F)ncc1C#N)(C3)C2 (relative stereo) [Example 70]
0.28

Repeat with N#Cc1cnc(NCc2cccc(Cl)c2Cl)nc1NC[C@]12CC3C[C@H](C1)[C@@H](N)[C@@H](C3)C2 (relative stereo) [Example 140]
0.40
